Sourced from paper PMC8713164

target: PARP2 (Homo sapiens, UniProt Q9UGN5); construct: made in house; test: PARP2 biochemical assay; details: > under 50% inhibition
Sequence (Q9UGN5 whole entry): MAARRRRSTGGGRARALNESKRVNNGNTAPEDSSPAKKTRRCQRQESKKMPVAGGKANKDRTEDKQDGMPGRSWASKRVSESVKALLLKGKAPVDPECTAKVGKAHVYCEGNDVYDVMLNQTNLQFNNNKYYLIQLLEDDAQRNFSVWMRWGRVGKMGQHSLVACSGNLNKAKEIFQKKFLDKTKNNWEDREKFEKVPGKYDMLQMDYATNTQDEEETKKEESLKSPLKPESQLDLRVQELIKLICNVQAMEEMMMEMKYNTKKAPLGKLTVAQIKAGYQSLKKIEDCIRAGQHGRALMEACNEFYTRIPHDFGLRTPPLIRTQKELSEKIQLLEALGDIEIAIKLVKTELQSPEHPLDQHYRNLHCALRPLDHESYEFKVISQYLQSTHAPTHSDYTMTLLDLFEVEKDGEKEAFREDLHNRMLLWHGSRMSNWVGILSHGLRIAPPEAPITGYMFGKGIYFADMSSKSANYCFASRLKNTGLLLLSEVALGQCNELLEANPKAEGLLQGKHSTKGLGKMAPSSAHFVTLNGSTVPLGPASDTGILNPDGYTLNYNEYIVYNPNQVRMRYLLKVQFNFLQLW
pIC50: −log10 of the molar value.
Measured Attribute: pIC50

Lab note: need pIC50 with PARP2 (Homo sapiens, UniProt Q9UGN5) for entry CCOc1ccc(-c2nnc([C@H]3C[C@H](NC(=O)c4cccc5nccnc45)C3)n2-c2ccccc2F)nc1 , please look it up.
< 4.00

----------
experiment: mouse peroral pharmacokinetic analysis; format: in vivo; conditions: IRC, in vivo; mouse PO 5 mg/kg
Overview of reported Tmax at 24 h across a group of compounds:
Give the value, in units of min, as a plain number.

Cc1cccc(-c2nnc([C@H]3C[C@H](NC(=O)c4cc(F)cc5nccnc45)C3)n2-c2ccccc2F)n1 [Compound 31b]: 15
CCOc1ccc(-c2nnc([C@H]3C[C@H](NC(=O)c4cccc5nccnc45)C3)n2-c2ccccc2F)nc1: 30
CCOc1ccc(-c2nnc([C@H]3C[C@H](NC(=O)c4ccnc5cccnc45)C3)n2-c2ccc(C)s2)nc1 [Compound 22a]: 15
Cc1cccc(-c2nnc([C@H]3C[C@H](NC(=O)c4cccc5nccnc45)C3)n2-c2ccccc2F)n1 [Compound 31a]: 15

Here is the next item to consider.
Report Tmax at 24 h for CCOc1ccc(-c2nnc([C@H]3C[C@H](NC(=O)c4ccnc5cc(F)cnc45)C3)n2-c2ccncc2)nc1 [Compound 18b] please.
15

----------
Reported pIC50 values for a set of compounds
Biological target: TNKS2 (Homo sapiens, UniProt Q9H2K2)
Construct: TNKS2 (residues 873–1162); made in house
Sequence (Q9H2K2 873-1162): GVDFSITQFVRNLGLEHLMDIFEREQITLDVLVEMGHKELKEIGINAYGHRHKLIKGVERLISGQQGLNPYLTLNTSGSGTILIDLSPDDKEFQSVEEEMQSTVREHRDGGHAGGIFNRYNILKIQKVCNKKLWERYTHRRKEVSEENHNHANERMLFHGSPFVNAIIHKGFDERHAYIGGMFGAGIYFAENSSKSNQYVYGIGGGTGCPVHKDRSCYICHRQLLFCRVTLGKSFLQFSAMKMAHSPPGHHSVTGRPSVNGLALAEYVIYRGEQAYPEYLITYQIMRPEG
Test: TNKS2 biochemical assay (unreacted NAD+ fluorescence)
Settings: TNKS2 5 nM, 500 nM NAD+, 20 h; quadruplicates; 95% confidence intervals in parentheses; 24: averages of multiple independent measurements; read-out: IC50 TNKS2
Friendly reminder that pIC50 comes from taking -log10 of the concentration in mol/L.

Entry CCOc1ccc(-c2nnc([C@H]3C[C@H](NC(=O)c4ccnc5cc(F)cnc45)C3)n2-c2ccncc2)nc1 [Compound 18b] : reported pIC50 = ?
8.54

Form field: reported pIC50 of CCOc1ccc(-c2nnc([C@H]3C[C@H](NC(=O)c4ccccn4)C3)n2-c2cccc(Cl)c2)nc1 [Compound 12]
7.89

// query pIC50 value for entry CCOc1ccc(-c2nnc([C@H]3C[C@H](NC(=O)c4ccnc5cccnc45)C3)n2-c2cccnc2)nc1 [Compound 17a]
8.35

Please look up its pIC50: CCOc1ccc(-c2nnc(C34CC(NC(=O)c5ccnc6cccnc56)(C3)C4)n2-c2ccncc2)nc1 [Compound 21]
8.03
